Biological target: UniProtKB P27338
Sequence (P27338 whole entry): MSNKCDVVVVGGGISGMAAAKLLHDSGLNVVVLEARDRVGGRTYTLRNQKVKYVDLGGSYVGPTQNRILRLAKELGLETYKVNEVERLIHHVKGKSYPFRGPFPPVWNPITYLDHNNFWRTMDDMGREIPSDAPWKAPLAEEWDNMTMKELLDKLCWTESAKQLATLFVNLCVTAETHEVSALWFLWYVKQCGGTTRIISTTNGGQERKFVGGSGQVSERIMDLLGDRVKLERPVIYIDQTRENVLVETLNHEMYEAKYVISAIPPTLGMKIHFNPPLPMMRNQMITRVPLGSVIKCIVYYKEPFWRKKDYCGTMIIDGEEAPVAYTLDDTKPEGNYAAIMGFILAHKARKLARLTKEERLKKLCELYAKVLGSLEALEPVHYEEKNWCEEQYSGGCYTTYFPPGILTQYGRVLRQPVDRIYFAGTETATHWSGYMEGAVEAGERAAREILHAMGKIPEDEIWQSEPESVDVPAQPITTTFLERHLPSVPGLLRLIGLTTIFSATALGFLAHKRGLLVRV
Type: cell-based, BTI-TN-5B1-4
Description: Inhibition of human recombinant MAOB expressed in BTI-TN-5B1-4 cells by para-tyramine oxidation assay
recorded-endpoint: IC50 (nM)

Please review the following examples before continuing.
>>> readout_number("COc1ccc(-c2cc(=O)c3ccccc3o2)cc1")
27900
>>> readout_number("COc1ccc(-c2cc(=S)c3ccc(OC)cc3o2)cc1")
3340
>>> readout_number("COc1ccc(C2CC(=O)c3ccc(F)cc3O2)cc1 (racemic)")
170
>>> readout_number("O=C1CC(c2ccccc2)Oc2cc(F)ccc21 (racemic)")
3770
>>> readout_number("Cc1ccc(-c2cc(=S)c3ccc(C)cc3o2)cc1")
6720

[a] COc1ccc2c(c1)O[C@@H](c1ccc(F)cc1)CC2=O
[b] Fc1ccc(-c2cc(=S)c3ccc(F)cc3o2)cc1
I would appreciate it if you could say which entry, a or b , has the lower IC50 value. Please reply using the label of the selected record. a
(a: 200 nM, b: 6890 nM)

* * *

Molecular target: Amine oxidase [flavin-containing] A (Homo sapiens)
Experiment: Inhibition of human recombinant MAOA expressed in BTI-TN-5B1-4 cells at 100 uM by para-tyramine oxidation assay
Assay type: cell-based
Details: human, bti-tn-5b1-4, 100 µM
recorded-endpoint: inhibition (INH)

Answered examples (5):
>>> result("Cc1ccc2c(=S)cc(-c3ccccc3)oc2c1")
"Not Active"
>>> result("Cc1ccc(-c2cc(=S)c3ccc(C)cc3o2)cc1")
"Not Active"
>>> result("Cc1ccc(C2CC(=O)c3ccc(F)cc3O2)cc1 (racemic)")
"Not Active"
>>> result("Cc1ccc2c(=O)cc(-c3ccc(F)cc3)oc2c1")
"Not Active"
>>> result("COc1ccc(-c2cc(=S)c3ccc(C)cc3o2)cc1")
"Not Active"

Report its inhibition (INH) with Amine oxidase [flavin-containing] A (Homo sapiens) as the test system: COc1ccc2c(=O)cc(-c3ccc(C)cc3)oc2c1 Not Active

Lab note: Amine oxidase [flavin-containing] A (Homo sapiens) assay, enter inhibition (INH) for O=C1CC(c2ccccc2)Oc2cc(F)ccc21 (racemic) here Not Active

Send back Amine oxidase [flavin-containing] A (Homo sapiens) inhibition (INH) of COc1ccc2c(=S)cc(-c3ccccc3)oc2c1 only. Not Active

State inhibition (INH) on Amine oxidase [flavin-containing] A (Homo sapiens). Entry: O=C1CC(c2ccc(F)cc2)Oc2ccccc21 (racemic) Not Active

State inhibition (INH) on Amine oxidase [flavin-containing] A (Homo sapiens). Entry: Cc1ccc(-c2cc(=O)c3ccccc3o2)cc1 Not Active

Give inhibition (INH); test system Amine oxidase [flavin-containing] A (Homo sapiens); compound O=c1cc(-c2ccc(F)cc2)oc2cc(F)ccc12 Not Active

Give inhibition (INH) for this entry on Amine oxidase [flavin-containing] A (Homo sapiens): COc1ccc2c(c1)O[C@@H](c1ccc(F)cc1)CC2=O Not Active

* * *

Quick note: these are IC50 numbers for system: Amine oxidase [flavin-containing] A (Homo sapiens, UniProt P21397)
Sequence (P21397 whole entry): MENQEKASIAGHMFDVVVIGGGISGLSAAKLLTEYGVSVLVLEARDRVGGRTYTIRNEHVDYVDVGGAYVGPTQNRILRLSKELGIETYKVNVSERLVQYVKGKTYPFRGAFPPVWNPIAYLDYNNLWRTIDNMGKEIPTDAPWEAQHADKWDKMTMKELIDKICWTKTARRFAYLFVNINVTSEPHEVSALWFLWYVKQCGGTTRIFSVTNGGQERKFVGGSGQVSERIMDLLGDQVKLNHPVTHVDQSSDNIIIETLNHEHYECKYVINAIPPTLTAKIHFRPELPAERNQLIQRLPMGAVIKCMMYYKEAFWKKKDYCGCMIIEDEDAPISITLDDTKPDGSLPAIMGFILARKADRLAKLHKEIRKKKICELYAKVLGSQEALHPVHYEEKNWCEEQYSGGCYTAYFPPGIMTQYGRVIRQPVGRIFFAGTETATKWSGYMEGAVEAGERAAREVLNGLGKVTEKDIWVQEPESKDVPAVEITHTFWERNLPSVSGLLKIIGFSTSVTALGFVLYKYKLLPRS
Write it as a number; the unit µM goes unstated.

Guide cases for IC50, answers given:
>>> readout_number("O=c1cc(-c2ccc(O)c(O)c2)oc2cc(O)cc(O)c12 [LUTEOLIN]")
4.9
>>> readout_number("O=c1cc(-c2ccc(O)cc2)oc2cc(O)cc(O)c12 [APIGENIN]")
1.7

Please look at the following molecule next.
Determine reported IC50 for O=c1c(O)c(-c2ccc(O)c(O)c2)oc2cc(O)cc(O)c12 [QUERCETIN] ; test system: Amine oxidase [flavin-containing] A (Homo sapiens, UniProt P21397). 2.8
